# credit: the RNAGym collection of RNA variant scans (doi:10.1126/science.aae0568)

B1: tRNA (parent)
chain: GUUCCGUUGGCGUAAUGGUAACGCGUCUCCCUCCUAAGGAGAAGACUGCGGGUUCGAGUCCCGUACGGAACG

- Variants of: B1
- measurement description: yeast fitness relative to wild type (ratio to wild type); higher = fitter; tRNA-Arg(CCU), competitive growth, 37 C, YPD
Variants at the floor of the assay were thinned out.
reported property: yeast fitness
Give only the figure.

GUUCCGUUGCCGUAAUGGUAACGCGUCUCCCUGCUCAGGAGAAGAAUGCGGGUUCGAGUCCCGUUCGGAACG [G10C C33G A36C C46A A65U]; 0.53
GUUCCGUUGGCGUAAUGGUAACGCCUCUCCCUCCUAAGGAGAAGACUGCAGGUUCGAGUCCGGUACGGAACG [G25C G50A C62G]; 0.897
GUUCCGUUGGCGUAAUGGUAACGCGUCUCCCUCCUAAGGAGGAGACUGCGGGUUUGAGUCCCGUACGGAACG [A42G C55U]; 0.688
GUUCCGUUGGCGUAAUGGUAACGCGUCUCCCUCCUAAUGAGAAGACUGCGGGUUCGAGUCCCGUGCGGAACG [G38U A65G]; 0.802
GUUUCGUUGGCGUAAUGGUAACGCGUCUCCCUCCUAAGGAGAAGCCUGCGAGUUCGAGUCCCGUACGGAACG [C4U A45C G51A]; 0.501

Field: next variant
Task: Item GUUCCGUUGGCGUAAUGGUGUCGCGUCUCCCUCCUAAGGAGCAGACUGCGGGUUCGAGUCCCGUACGGAACG [A20G A21U A42C] has what recorded yeast fitness?
Result: 0.547
